Entry source: ChEMBL document CHEMBL5608244

# assay_notes: Biodistribution in ICR mouse blood at 0.74 MBq, iv measured after 10 mins by automatic gamma counter analysis
# Format: ADME, organism-based
# condition: in vivo

- compound: "CC(C)(C)C(=O)N1N=CCC1c1cccc([18F])c1 (stereo unspecified)"
  Drug uptake [% ID/g]: 4.92

====

Measured Retention_time, listed per entry.
# assay_notes: Retention time of the compound by HPLC method
# Assay type: physicochemical
quantity_measured: Retention_time

- compound: "CC(C)(C)C(=O)N1N=CCC1c1cccc([18F])c1 (stereo unspecified)"
  quantity_measured: "Retention_time"
  recorded_measurement: "21.84 min"
- compound: "CC(C)(C)C(=O)N1N=CCC1c1cccc(F)c1 (stereo unspecified)"
  quantity_measured: "Retention_time"
  recorded_measurement: "21.74 min"
- compound: "CC(C)(C)C(=O)N1N=CCC1c1cc(F)cc([18F])c1 (stereo unspecified)"
  quantity_measured: "Retention_time"
  recorded_measurement: "13.76 min"
- compound: "Cc1ccc(C2CC=NN2C(=O)C(C)(C)C)cc1F (stereo unspecified)"
  quantity_measured: "Retention_time"
  recorded_measurement: "21.7 min"
- compound: "CC(C)(C)C(=O)N1N=CCC1c1cc(F)cc(F)c1 (stereo unspecified)"
  quantity_measured: "Retention_time"
  recorded_measurement: "13.66 min"
- compound: "Cc1ccc(C2CC=NN2C(=O)C(C)(C)C)cc1[18F] (stereo unspecified)"
  quantity_measured: "Retention_time"
  recorded_measurement: "21.81 min"

====

# assay_notes: Drug metabolism in mouse brain assessed as parent compound remaining at 13.5 MBq, iv measured after 30 mins by HPLC analysis
# Format: ADME, organism-based
# condition: read-out: Activity
quantity_measured: remaining at 0.5 h (%)

- compound: "CC(C)(C)C(=O)N1N=CCC1c1cccc([18F])c1 (stereo unspecified)"
  recorded_measurement: 22.4

====

# assay_notes: Drug metabolism in mouse liver assessed as parent compound remaining at 13.5 MBq, iv measured after 30 mins by HPLC analysis
# Type: ADME, organism-based
# condition: read-out: Activity
quantity_measured: remaining at 0.5 h (%)

- molecule: "CC(C)(C)C(=O)N1N=CCC1c1cccc([18F])c1 (stereo unspecified)"
  quantity_measured: "remaining at 0.5 h"
  recorded_measurement: 1.5

====

# assay_notes: Lipophilicity, logD of compound at pH 7.4 by shake flask method
# Type: physicochemical
# condition: buffer

- compound: "CC(C)(C)C(=O)N1N=CCC1c1cccc([18F])c1 (stereo not drawn)"
  logD: 2.25
- compound: "Cc1ccc(C2CC=NN2C(=O)C(C)(C)C)cc1[18F] (stereo not drawn)"
  logD: 2.98
- compound: "CC(C)(C)C(=O)N1N=CCC1c1cc(F)cc([18F])c1 (stereo not drawn)"
  logD: 2.58
